# target-desc: Lyn B (Homo sapiens, UniProt P07948)
# Construct: Lyn B (2–583; BC059394); 6xHN (N)
# Sequence (P07948 2-491 isoform P07948-2 limits assumed): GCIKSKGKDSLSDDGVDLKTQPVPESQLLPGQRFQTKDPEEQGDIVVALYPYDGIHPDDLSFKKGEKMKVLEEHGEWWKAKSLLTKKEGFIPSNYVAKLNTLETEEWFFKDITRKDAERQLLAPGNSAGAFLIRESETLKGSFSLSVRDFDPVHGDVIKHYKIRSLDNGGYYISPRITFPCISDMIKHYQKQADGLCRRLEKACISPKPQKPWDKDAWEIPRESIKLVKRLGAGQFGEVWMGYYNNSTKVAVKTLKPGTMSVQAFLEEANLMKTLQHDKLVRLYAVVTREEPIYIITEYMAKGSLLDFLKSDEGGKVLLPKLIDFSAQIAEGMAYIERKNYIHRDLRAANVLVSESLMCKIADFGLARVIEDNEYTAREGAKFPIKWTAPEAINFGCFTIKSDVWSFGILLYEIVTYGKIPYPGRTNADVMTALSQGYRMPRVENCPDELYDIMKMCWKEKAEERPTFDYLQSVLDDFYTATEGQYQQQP
# method-summary: Recombinant kinase ELISA assay, Lyn B
# experimental-conditions: recombinant human enzyme; ELISA-based assay, poly(Glu,Tyr 4:1) substrate
observation-type: pIC50
Entry type: numeric. Quantity: pIC50, the -log10 of concentration in molar units.

For this compound ( CS(=O)(=O)O.CS(=O)(=O)O.Cc1ccc(NC(=O)c2ccc(CN3CCN(C)CC3)cc2)cc1Nc1nc(-c2cccnc2)cs1 ), measured pIC50 is 6.29
